meta.source: ChEMBL document CHEMBL3991601

Target: Mitogen-activated protein kinase kinase kinase kinase 2 (Homo sapiens, UniProt Q12851); also: in the data inactive means no Kd found up to 30 µM
Sequence (Q12851 whole entry): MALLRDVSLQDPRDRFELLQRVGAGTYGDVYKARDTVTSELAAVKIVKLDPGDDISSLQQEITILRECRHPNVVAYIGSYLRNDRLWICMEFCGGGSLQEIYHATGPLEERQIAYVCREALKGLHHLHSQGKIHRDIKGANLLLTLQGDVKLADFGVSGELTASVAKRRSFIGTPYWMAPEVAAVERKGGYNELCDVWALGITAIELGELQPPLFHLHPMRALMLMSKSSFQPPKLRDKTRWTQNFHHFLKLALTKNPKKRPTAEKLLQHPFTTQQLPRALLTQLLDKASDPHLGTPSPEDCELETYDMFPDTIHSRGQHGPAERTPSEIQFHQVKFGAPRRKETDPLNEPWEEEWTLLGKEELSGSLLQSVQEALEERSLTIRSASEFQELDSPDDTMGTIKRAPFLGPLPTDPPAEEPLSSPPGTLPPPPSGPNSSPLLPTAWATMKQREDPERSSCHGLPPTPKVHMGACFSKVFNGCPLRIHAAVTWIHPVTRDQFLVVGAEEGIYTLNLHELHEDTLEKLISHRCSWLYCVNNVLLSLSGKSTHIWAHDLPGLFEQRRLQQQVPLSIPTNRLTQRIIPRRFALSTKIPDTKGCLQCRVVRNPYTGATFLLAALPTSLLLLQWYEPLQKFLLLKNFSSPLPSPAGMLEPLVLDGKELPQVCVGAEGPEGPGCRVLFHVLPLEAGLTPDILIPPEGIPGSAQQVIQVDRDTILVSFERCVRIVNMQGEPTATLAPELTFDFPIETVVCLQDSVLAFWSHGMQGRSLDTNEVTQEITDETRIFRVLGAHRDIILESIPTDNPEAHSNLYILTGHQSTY
Calls of active or inactive are those of the source.
Write down one outcome, taken from active, inactive

Example cases with answers are listed next.
| COMPOUND | ASSIGNED_CLASS |
| --- | --- |
| C1=C/COCc2cc(ccc2OCCN2CCCC2)Nc2nccc(n2)-c2cccc(c2)COC/1 [PACRITINIB] | active |
| C[C@@H]1CN(Cc2ccc(F)cc2)[C@@H](C)CN1C(=O)c1cc2c(C(=O)C(=O)N(C)C)cn(C)c2cc1Cl [TALMAPIMOD] | inactive |
| COc1cc(CCc2cc(NC(=O)c3ccc(N4C[C@@H](C)N[C@@H](C)C4)cc3)n[nH]2)cc(OC)c1 [AZD-4547] | active |

Task: # fetch the recorded call for CNC(=O)c1ccc(C)c(-n2c(C)cc(OCc3ccc(F)cc3F)c(Br)c2=O)c1 [PH-797804] here
Result: inactive
